Listed next: entries and their corresponding inhibition of the binding of biotin-MAb (%).
# targetEntity: T1, human CD30, native, expressed on cells (human)
# T1 construct: also called native CD30; CD30 on L540, L428, A431/CD30, Karpas299, SUDHL-1 and other CD30-positive cells
# T1 chain: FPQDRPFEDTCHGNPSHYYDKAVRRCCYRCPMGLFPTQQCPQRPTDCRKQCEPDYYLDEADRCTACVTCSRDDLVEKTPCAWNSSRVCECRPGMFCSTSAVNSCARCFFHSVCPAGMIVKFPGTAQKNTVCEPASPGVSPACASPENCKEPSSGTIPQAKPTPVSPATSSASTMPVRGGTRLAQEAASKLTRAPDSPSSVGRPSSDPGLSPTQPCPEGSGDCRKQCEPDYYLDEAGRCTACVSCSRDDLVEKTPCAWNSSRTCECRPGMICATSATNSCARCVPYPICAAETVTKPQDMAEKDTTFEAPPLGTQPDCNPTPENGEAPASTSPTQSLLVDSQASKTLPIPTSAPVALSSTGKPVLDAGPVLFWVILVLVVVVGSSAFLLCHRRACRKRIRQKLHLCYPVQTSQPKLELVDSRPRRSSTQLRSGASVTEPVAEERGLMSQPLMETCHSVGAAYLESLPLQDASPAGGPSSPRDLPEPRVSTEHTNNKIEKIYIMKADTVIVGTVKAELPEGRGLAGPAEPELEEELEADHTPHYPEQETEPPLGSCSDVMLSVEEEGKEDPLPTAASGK
# assayOverview: competitive FACS on L540 cells, unlabeled MAb 2.5 µg/ml; competitor: biotin-HRS-4
Numbers only here, please. The scale is %.

See these solved cases before continuing.
{"binder": "T25 MAb (antibody, V domains shown) VH: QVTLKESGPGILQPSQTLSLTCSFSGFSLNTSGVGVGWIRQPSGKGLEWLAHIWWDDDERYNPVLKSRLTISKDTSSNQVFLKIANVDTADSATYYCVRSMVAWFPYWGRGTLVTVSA VL: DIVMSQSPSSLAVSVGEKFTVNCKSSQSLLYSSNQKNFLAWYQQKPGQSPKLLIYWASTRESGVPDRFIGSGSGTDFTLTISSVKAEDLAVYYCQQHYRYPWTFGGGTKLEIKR", "valueMeasured": 0}
{"binder": "T13 MAb (antibody, V domains shown) VH: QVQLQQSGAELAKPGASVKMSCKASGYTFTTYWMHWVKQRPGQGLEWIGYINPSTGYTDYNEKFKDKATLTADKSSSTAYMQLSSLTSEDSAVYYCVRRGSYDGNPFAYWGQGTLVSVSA VL: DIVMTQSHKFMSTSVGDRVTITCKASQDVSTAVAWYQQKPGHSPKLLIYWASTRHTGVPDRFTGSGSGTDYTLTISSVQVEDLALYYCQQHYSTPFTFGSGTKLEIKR", "valueMeasured": 82.6}
{"binder": "T24 MAb (antibody, V domains shown) VH: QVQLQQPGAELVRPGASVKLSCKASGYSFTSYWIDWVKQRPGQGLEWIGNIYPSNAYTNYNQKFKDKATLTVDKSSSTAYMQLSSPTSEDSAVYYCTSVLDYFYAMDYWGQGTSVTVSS VL: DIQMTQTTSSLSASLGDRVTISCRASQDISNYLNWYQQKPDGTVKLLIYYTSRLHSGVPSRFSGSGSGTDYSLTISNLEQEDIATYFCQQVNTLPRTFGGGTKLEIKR", "valueMeasured": 52.2}

Next item in the queue.
Incoming: Consider the binder T6 MAb (antibody, V domains shown) VH: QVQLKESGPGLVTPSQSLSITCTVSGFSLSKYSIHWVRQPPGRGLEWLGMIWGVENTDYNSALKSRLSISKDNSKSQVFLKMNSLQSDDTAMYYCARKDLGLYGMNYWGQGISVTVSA VL: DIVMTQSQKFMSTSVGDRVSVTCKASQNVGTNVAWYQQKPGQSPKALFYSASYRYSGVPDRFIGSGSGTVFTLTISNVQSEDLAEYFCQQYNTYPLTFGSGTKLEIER and give its recorded inhibition of the binding of biotin-MAb (%).
Outgoing: 97.9
